Just for reference, patent US20050107316A1 is where these values come from.

Tested on: PLK1 protein
Test: Western blot analysis of PLK1 protein after ASO treatment
Format: cell-based, human
Settings: HeLa S3 and MDA-MB-435 cells; read-out: Median inhibitory concentration (IC50), reduction of PLK1 expression
Procedure: 48 hrs after ASO treatment cells were lysed for subsequent Western blotting (Hock et al., 1998). […] In vitro-inhibitory activities of ASOs on cell proliferation were tested by transfection with different ASOs. […] Cell numbers were determined at the appropriate time after ASO treatment by direct counting using a hemacytometer. Cell viability was assessed by trypan blue staining. Each experiment was performed at least in triplicate and the standard deviation for each group was determined. […]
parameter: IC50

IC50 measured on accagtccggaggggagggc (ACCAGTCCGGAGGGGAGGGC; chemistry not given here) [ASO P12] = 0.05 to 0.075 µM
